Numbers sourced from patent US20260176352A1.

- SYSTEM_TESTED: native full length human CB1 receptor (cannabinoid 1 receptor) (human, UniProt P21554 1-472)
- Sequence (P21554 whole entry): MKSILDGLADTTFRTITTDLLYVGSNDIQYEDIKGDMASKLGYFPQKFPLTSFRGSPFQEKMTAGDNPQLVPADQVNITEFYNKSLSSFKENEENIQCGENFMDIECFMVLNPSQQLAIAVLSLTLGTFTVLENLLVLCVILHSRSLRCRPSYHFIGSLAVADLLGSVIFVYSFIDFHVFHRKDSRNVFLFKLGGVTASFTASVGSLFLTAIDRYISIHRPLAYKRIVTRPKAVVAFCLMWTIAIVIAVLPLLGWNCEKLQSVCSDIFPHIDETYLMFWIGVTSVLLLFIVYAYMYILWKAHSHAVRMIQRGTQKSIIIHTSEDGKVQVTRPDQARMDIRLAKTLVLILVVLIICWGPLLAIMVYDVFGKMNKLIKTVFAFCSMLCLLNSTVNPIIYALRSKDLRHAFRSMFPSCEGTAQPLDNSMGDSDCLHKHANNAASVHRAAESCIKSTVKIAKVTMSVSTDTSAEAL
- ASSAY: cell-based or functional assay
MEASURED_PARAMETER: Exp 3 IC50 (nM), cAMP antagonist assay
One number for each entry, in nM.

Some binders with known Exp 3 IC50 (nM), cAMP antagonist assay results, for comparison:
RY-LC-B12 FACS3 (IgG4 S228P) (antibody, V domains shown) VH: QVQLVQSGAEVKKPGSSVKVSCKASGYEFSYYWMNWVRQAPGQGLEWMGQIYPGDGETKYAQKFQGRVTITADKSTSTAYMELSSLRSEDTAVYYCARSHGNYLPYWGQGTLVTVSS VL: EIVLTQSPATLSLSPGERATLSCRASQSVSSRYLHWYQQKPGQAPRLLIYSTSRLASGIPARFSGSGSGTDFTLTISRLEPEDFAVYYCQQYHRSPPTFGQGTKVEIKR :: 39.7
RY-HL-LC-A12 FACS4 (IgG4 S228P) (antibody, V domains shown) VH: QVQLVQSGAEVKKPGSSVKVSCKASGYEFSYYWMNWVRQAPGQGLEWMGQIYPGDGETKYAQKFQGRVTITADKSTSTAYMELSSLRSEDTAVYYCARSHGNYLPYWGQGTLVTVSS VL: EIVLTQSPATLSLSPGERATLSCRASQSVSSRYLHWYQQKPGQAPRLLIYGTSNLASGIPARFSGSGSGTDFTLTISRLEPEDFAVYYCHQYSRSPPTFGQGTKVEIKR :: 42.4

// next item, Exp 3 IC50 (nM), cAMP antagonist assay requested
Please report the recorded Exp 3 IC50 (nM), cAMP antagonist assay for RY-LC-A10 FACS5 (IgG4 S228P) (antibody, V domains shown) VH: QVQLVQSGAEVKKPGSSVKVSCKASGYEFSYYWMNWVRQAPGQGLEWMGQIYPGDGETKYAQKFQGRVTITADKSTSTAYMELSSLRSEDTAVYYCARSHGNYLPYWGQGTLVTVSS VL: EIVLTQSPATLSLSPGERATLSCRASQSVSSRYLHWYQQKPGQAPRLLIYSTSNRASGIPARFSGSGSGTDFTLTISRLEPEDFAVYYCQQYHRSPPTFGQGTKVEIKR .
48.1
